Data provenance is patent US20090011988A1.

# tgt: recombinant human IGFBP-3 (human, UniProt P17936 28-291)
# Sequence (P17936 28-291 limits assumed): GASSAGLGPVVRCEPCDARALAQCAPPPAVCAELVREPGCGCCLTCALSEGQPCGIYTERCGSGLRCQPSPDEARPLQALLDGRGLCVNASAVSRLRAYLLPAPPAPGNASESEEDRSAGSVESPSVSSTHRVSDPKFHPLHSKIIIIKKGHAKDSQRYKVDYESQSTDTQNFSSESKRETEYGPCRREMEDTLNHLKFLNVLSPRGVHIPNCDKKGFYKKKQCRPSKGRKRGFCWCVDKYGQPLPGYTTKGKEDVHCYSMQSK
# assay.notes: BIAcore competition, IGFBP-3 to IGF-1
Positions of bridges follow the written chain, without caps; N, C: chain ends. No end group written: not given here.
reported.metric: IC50 (µM)
One number for each entry, in µM.

binder	IC50, µM
ASEEVCWPVAEWYLCNMWGR (disulfide 6-15) [4D3.3P]	5.6
EEVCWPVAEWYLCN (disulfide 4-13) [BP3-28]	5.4

List the reported IC50 of each binder below.
1. ASEEVCWPVAEWYLCN (disulfide 6-15) [BP3-30]
2. SEEVCWPVAEWYLCN-NH2 (disulfide 5-14; N-terminus assumed; SMILES CC(C)C[C@@H]1NC(=O)[C@H](Cc2ccc(O)cc2)NC(=O)[C@H](Cc2c[nH]c3ccccc23)NC(=O)[C@H](CCC(=O)O)NC(=O)[C@H](C)NC(=O)[C@H](C(C)C)NC(=O)[C@@H]2CCCN2C(=O)[C@H](Cc2c[nH]c3ccccc23)NC(=O)[C@@H](NC(=O)[C@@H](NC(=O)[C@H](CCC(=O)O)NC(=O)[C@H](CCC(=O)O)NC(=O)[C@@H](N)CO)C(C)C)CSSC[C@@H](C(=O)N[C@@H](CC(N)=O)C(N)=O)NC1=O) [BP3-39]
3. CWPVAEWYLCN (disulfide 1-10) [BP3-25]

5.6
0.66
46

List the reported IC50 of each binder below.
1. GPETCWPVAEWYLCN (disulfide 5-14) [BP3-41]
2. SEEVCWPVAEWYLCNMWG (disulfide 5-14) [BP3-01-ox]
3. SEEVCWPVAEWYLCN (disulfide 5-14) [BP3-15]
4. EVCWPVAEWYLCN (disulfide 3-12) [BP3-27]

1: 4; 2: 2; 3: 0.72; 4: 2.8
